Molecular target: hMC4R (Homo sapiens (Human))
Experiment: In vitro binding affinity assay using hMC4R (radioligand competition binding, [125I]-(Nle4, D-Phe7)-α-MSH)
Settings: geometric mean, read-out: Ki (nM) geometric
Friendly reminder: Ki below 30 nM is condition met, at or above is condition not met.

| molecule | measured-target | qualitative-label |
| --- | --- | --- |
| COc1cc([C@](C)(F)C(=O)N2CC[C@@]3(CCc4cc(-c5ncccn5)c(C)nc4N3)C2)c(F)cn1 (single isomer, unassigned) | hMC4R (Homo sapiens (Human)) | condition met |

input: Field: below-cutoff. Rule: recorded Ki strictly less than 30 nM. Subject: COc1ncc(F)c([C@@H](C)C(=O)N2CC[C@@]3(CCc4cc(-c5nc6ccccn6n5)c(C)nc4N3)C2)n1 (single isomer, unassigned) [Example 133]
output: condition not met

input: Field: below-cutoff. Rule: recorded Ki strictly less than 30 nM. Subject: Cc1nc2c(cc1-c1nnn(C)n1)CC[C@@]1(CCN(C(=O)[C@H](C)c3ccc(C(F)(F)F)cc3)C1)N2 (single isomer, unassigned)
output: condition met

input: Field: below-cutoff. Rule: recorded Ki strictly less than 30 nM. Subject: COc1cc([C@@H](C)C(=O)N2CC[C@@]3(CCc4cc(-c5nnn(C)n5)c(C)nc4N3)C2)nc(C(F)F)n1 (single isomer, unassigned)
output: condition met

input: Field: below-cutoff. Rule: recorded Ki strictly less than 30 nM. Subject: COc1cc([C@@H](C)C(=O)N2CC[C@@]3(CCc4cc(-c5cnn(C)c5)c(C)nc4N3)C2)c(Cl)cn1 (single isomer, unassigned)
output: condition not met

input: Field: below-cutoff. Rule: recorded Ki strictly less than 30 nM. Subject: COc1ncc(F)c([C@@H](C)C(=O)N2CC[C@@]3(CCc4cc(-c5nc6ccccn6n5)c(C)nc4N3)C2)n1 (single isomer, unassigned) [Example 132]
output: condition met

###

Listed here are compounds together with their documented Kb.
Target: human Melanocortin-4 receptor (MC4R) (Homo sapiens (Human))
Sequence (P32245 whole entry): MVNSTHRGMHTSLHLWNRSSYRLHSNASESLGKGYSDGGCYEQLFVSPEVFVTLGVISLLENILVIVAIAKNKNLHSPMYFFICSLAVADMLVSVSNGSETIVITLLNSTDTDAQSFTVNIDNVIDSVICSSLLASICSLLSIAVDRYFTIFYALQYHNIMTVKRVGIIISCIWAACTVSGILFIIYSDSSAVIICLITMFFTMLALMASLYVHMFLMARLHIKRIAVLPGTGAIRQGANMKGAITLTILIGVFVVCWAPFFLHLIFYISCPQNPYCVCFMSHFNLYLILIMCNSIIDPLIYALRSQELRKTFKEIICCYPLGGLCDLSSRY
Assay: Functional in vitro MC4R antagonist potency assay (cAMP HTRF in CHO cells)
Assay type: cell-based
Settings: read-out: Kb (nM) Antagonist geometric mean

input: So what Kb did Cc1nc2c(cc1-c1ncccn1)CC[C@@]1(CCN(C(=O)C(C)c3cc(OC(F)(F)F)ncc3Cl)C1)N2 (single isomer, unassigned) get with human Melanocortin-4 receptor (MC4R) (Homo sapiens (Human))?
output: 5.1 nM

input: So what Kb did Cc1nc2c(cc1-c1ncccn1)CC[C@@]1(CCN(C(=O)[C@H](C)c3ccc(Cl)cc3Cl)C1)N2 (single isomer, unassigned) [Example 35] get with human Melanocortin-4 receptor (MC4R) (Homo sapiens (Human))?
output: > 95 nM

input: So what Kb did COc1cc([C@H](C)C(=O)N2CC[C@@]3(CCc4cc(-c5ncccn5)c(C)nc4N3)C2)c(F)cn1 get with human Melanocortin-4 receptor (MC4R) (Homo sapiens (Human))?
output: > 97 nM

input: So what Kb did COc1cc([C@H](C)C(=O)N2CC[C@]3(CCc4cc(-c5ncccn5)c(C)nc4N3)C2)c(F)cn1 get with human Melanocortin-4 receptor (MC4R) (Homo sapiens (Human))?
output: > 54 nM

###

Molecular target: hMC4R (Homo sapiens (Human), UniProt P32245)
Sequence (P32245 whole entry): as above
Assay: In vitro binding affinity assay using hMC4R (radioligand competition binding, [125I]-(Nle4, D-Phe7)-α-MSH)
Conditions: geometric mean, read-out: Ki (nM) geometric mean
value-type: Ki (nM)
The reply should be a number in nM, with the unit left off.

| molecule | unit-abbrev | Ki |
| --- | --- | --- |
| Cc1nc2c(cc1-c1ncccn1)CC[C@@]1(CCN(C(=O)C(C)c3ccc(C(F)(F)F)cc3)C1)N2 (single isomer, unassigned) [Example 8] | nM | 76 |

input: Need Ki, item Cc1nc2c(cc1-c1ncccn1)CC[C@@]1(CCN(C(=O)[C@H](C)c3ccc(OC(F)(F)F)cc3)C1)N2 (single isomer, unassigned) [Example 49]
output: 64
